Exercise: state measured Vd for each of the compounds provided.
experiment: Pharmacokinetics in SD rats after single IV and PO administration, plasma; type: in vivo; details: Sprague-Dawley (SD), rat, plasma, iv, 1 mg/kg, rat plasma; IV 1 mg/kg; read-out: Vss
The answer is to be given in L/kg; state only the numeric part.

Query: Vd lookup needed for O=C(O)[C@@H]1C[C@H]1c1ccc(Cn2ccnc2)cc1 , thanks.
Reply: 0.16

Query: // returns reported Vd for input O=C(O)/C=C/c1ccc(Cn2ccnc2)cc1 [Ozagrel, reference compound]
Reply: 0.25

Query: What value of measured Vd is listed for O=C(O)[C@@H]1C[C@H]1c1ccc(Cn2cnc(F)c2)cc1F ?
Reply: 0.22

Query: Please give the measured Vd for this compound: O=C(O)[C@@H]1C[C@H]1c1ccc(Cn2ccnc2)c(F)c1
Reply: 0.34

Query: Vd for O=C(O)[C@@H]1C[C@H]1c1ccc(Cn2cnc(F)c2)c(Cl)c1 ?
Reply: 0.2

Query: Item under review: O=C(O)[C@@H]1C[C@H]1c1ccc(Cn2cnc(Cl)c2)c(Cl)c1 . Reported Vd?
Reply: 0.22
